test: soluble fraction after stress (log2 fold change); higher = more stays soluble; pooled small domains, quantitative proteomics; details: stress: 75 degC;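 note: 20 min heating vs room temperature control held 20 min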

[
  {
    "INPUT_SEQUENCE": "HMQTKSDMVYHRVREDIVNGVFAPGERLLISAVAKQYGVSEIPVREAFRVLSQEGFLKTRPNSGFVVS",
    "soluble fraction (log2)": -0.44
  },
  {
    "INPUT_SEQUENCE": "HMGERMELTLDNPREAIPVLDAMGFANYQVVDKEHIHIFERLNESALVNMELAKAGIPVKGISITSE",
    "soluble fraction (log2)": 0.0918
  },
  {
    "INPUT_SEQUENCE": "HMTKQMELLAQGAAKLSVDLNQRQLDQLQTYYRELVDWNQRMNLTAITQYEEVQVKHFLDSL",
    "soluble fraction (log2)": -0.477
  },
  {
    "INPUT_SEQUENCE": "HMDSAMMDLVMRVQLALFTKGYDVGIIDGKIGPKTRAQIKRYQSDNRLSSTGTLTTSLLTSLGIQ",
    "soluble fraction (log2)": -3.16
  },
  {
    "INPUT_SEQUENCE": "HMKKVSVKPILELRAAGISMRKIETLMHVSRHTISAIYKAADAYSISWDNVKDFDEDKIYEMLFPPTP",
    "soluble fraction (log2)": -4.13
  },
  {
    "INPUT_SEQUENCE": "HMIAIGDDARLDDAARFFRIAEDSYAAGDYRKSKENYIEARKLYAELGDHEKVNLINSKISAIDSIT",
    "soluble fraction (log2)": 0.0977
  },
  {
    "INPUT_SEQUENCE": "HMDRDQNVEEGQRSLKSEMGRFGLLIANMDDLAERVNYGNAEDMYAAIGAGDLRLMQVVHAAEEMLG",
    "soluble fraction (log2)": 0.097
  },
  {
    "INPUT_SEQUENCE": "HMLPERIQTIVALIGHGRAMDLVREFGGQEIKFPAQEGNDTWAALVEVIGEAATRKLAAVFGGGQAPPVYI",
    "soluble fraction (log2)": -1.17
  }
]

###

assay: soluble fraction after stress (log2 fold change); higher = more stays soluble; pooled small domains, quantitative proteomics; settings: stress: 75 degC
soluble fraction (log2) listing for selected sequences.

[
  {
    "INPUT_SEQUENCE": "HMVPQEVLPITLIIDGKLIEENLLYAKMTEQVLIQQLDINNIKSIKQILFAGLDSFGNFFYQEKQN",
    "REL": "=",
    "soluble fraction (log2)": -2.5
  },
  {
    "INPUT_SEQUENCE": "HMPTTRPEAEAHYETHQRYHDLQIDVEGREAFKVATGSLTLVQEFDEKDDYDLSIPTPRSPAILLTT",
    "REL": "=",
    "soluble fraction (log2)": -0.0329
  },
  {
    "INPUT_SEQUENCE": "HMRNLYEILGVSKDAPQGEIKSAYRKLAKTYHPDLNPNNEKAAELFKEINQAYEVLSDETKRRHYDQFGEA",
    "REL": "=",
    "soluble fraction (log2)": 0.342
  },
  {
    "INPUT_SEQUENCE": "HMADWTETELAALRRAYASGTTRVSYDGKSVDYGSAEDLLSRIRTLQGAASDVAADAVAAVDA",
    "REL": "=",
    "soluble fraction (log2)": -0.0473
  },
  {
    "INPUT_SEQUENCE": "HMKHEFSEEWLDWIKSNIADGQNKNGLFKVLLNHGYAYDAVREVMQYEPTVPLDELVDPLRA",
    "REL": "=",
    "soluble fraction (log2)": -0.143
  },
  {
    "INPUT_SEQUENCE": "HMGEPLSPDARALTNVLRHYRGWAEPGELARKSGLGSRERVLTAAQSLVNAGLADIERGMVRPTAALMEVQ",
    "REL": "=",
    "soluble fraction (log2)": 0.0619
  },
  {
    "INPUT_SEQUENCE": "HMSTGYEMVREVANQGSFSKAANSLGVSGPAVSKQVKSLEERLGLVLFHRTTRAVSLTQAGRQLVDVLN",
    "REL": "=",
    "soluble fraction (log2)": 0.114
  },
  {
    "INPUT_SEQUENCE": "HMAETLRLVGATNLNTLARARHPDDLAARNEFRRAIAQANPALFAGKSKVGSVSLPAGTVLALPPEV",
    "REL": "=",
    "soluble fraction (log2)": 0.0163
  },
  {
    "INPUT_SEQUENCE": "HMISKTFEINEDNINNRLDIFLANQFDNLSRGIVQKLIESHSVSVSGNFVEKDYKLKLGDIIDVEINLS",
    "REL": "=",
    "soluble fraction (log2)": -1.64
  },
  {
    "INPUT_SEQUENCE": "HMEDINAVLAENLRRLRESRRLSLDAVARLTGVSKSMLGQIERGEVNPTVSTMWKIAGGLKVNFTALFRRE",
    "REL": "=",
    "soluble fraction (log2)": -3.79
  },
  {
    "INPUT_SEQUENCE": "HMRMDKHLWLSLLRLINEGSAEELQTKKDELLQSLERLRITRGPVRGDVLRVVRLIDEELVSRLHLDQR",
    "REL": "=",
    "soluble fraction (log2)": -2.58
  },
  {
    "INPUT_SEQUENCE": "HMTMLLEYNVSRSSKWMNKTIMDAEIPDDILIVMIKRNGQVIVPKGSTEILENDILVLSGNNLNEVALG",
    "REL": "=",
    "soluble fraction (log2)": -3.02
  },
  {
    "INPUT_SEQUENCE": "HMVPFISVTPTSLSFAKGGESKTVDIEASGAFSVGKVPTGFNLEVVNGRITITADANTGAARNGSVEFILA",
    "REL": "=",
    "soluble fraction (log2)": 0.222
  },
  {
    "INPUT_SEQUENCE": "HMDGIIIPDVSGKSYAEAVATLNEKGFKVEKGEDAGSSLAKDLVSYTNPAAGNRAKSGATISVFVSTGANA",
    "REL": "=",
    "soluble fraction (log2)": 0.407
  },
  {
    "INPUT_SEQUENCE": "HMENNIPANIKALIISYVNQNYPGAVIHSIERNSNGTYDVEIYYNNREYDLLFDAQGNFISGNVDDQ",
    "REL": "=",
    "soluble fraction (log2)": -0.0333
  },
  {
    "INPUT_SEQUENCE": "HMTKKSLFNQYLDDQKRLDIVTLQKAELVDLHKLADELNIDQYNQLKKNELIFKILQSNPSE",
    "REL": "=",
    "soluble fraction (log2)": 0.162
  },
  {
    "INPUT_SEQUENCE": "HMRMTPRQALDDLIREREETYAAVSRLLGRNTAYIQQYIKRGTPARLDQSDIAQLALHFDVPAKLLGGKE",
    "REL": "=",
    "soluble fraction (log2)": -1.16
  },
  {
    "INPUT_SEQUENCE": "HMSDPFSPTTTLKNRAKSVLSVDSFEDFKLFIKKMWQEKKEGVYQNPNVETWKDWDNISVKDAKILISLI",
    "REL": "=",
    "soluble fraction (log2)": -1.45
  },
  {
    "INPUT_SEQUENCE": "HMQAPVDPIVLGKMGSSYGIRGWLRVFSSTEDAESIFDYQPWFIQKAGQWQQVQLESWKHHNQDMIIKLN",
    "REL": "=",
    "soluble fraction (log2)": 0.2
  },
  {
    "INPUT_SEQUENCE": "HMNVAELIEGHEAEIAEVLKEFSLLYLMRLADELGEMTKSSSGNGPFQVLKGLVYEEIARRG",
    "REL": "=",
    "soluble fraction (log2)": -1.65
  },
  {
    "INPUT_SEQUENCE": "HMSEVPVLVAKTDIKELELIDDRKVTLINVPQKFKMPGSFNSPEEVYNTIAAVPIKEGEQITKPRVTWP",
    "REL": "=",
    "soluble fraction (log2)": 0.0951
  },
  {
    "INPUT_SEQUENCE": "HMSKISKENEQQVIQIVQTLLLNVQDKSLITTQILNEKINLAVSLDTKYKENLDRDYIIEELIRRYSVW",
    "REL": "=",
    "soluble fraction (log2)": -2.93
  },
  {
    "INPUT_SEQUENCE": "HMADKSLLELPGLDGDKVSALVTAGVRNVNDLADLATDELVEKTGFDEKTAADLIIAARAVVY",
    "REL": "=",
    "soluble fraction (log2)": 0.43
  },
  {
    "INPUT_SEQUENCE": "HMSEITQTLSMIGKEVTLEIPDEKDKTKTTEVKGIVTEASFKDGTGKVKVNGEYYSIAYITSIRDT",
    "REL": "≥",
    "soluble fraction (log2)": 1.04
  },
  {
    "INPUT_SEQUENCE": "HMASQEESVATYIQDYYRNPKTGESMVSDDMVEEFYKTHPEWEDQADGSKEGMEAVLDNFNEFFEINYG",
    "REL": "=",
    "soluble fraction (log2)": 0.333
  },
  {
    "INPUT_SEQUENCE": "HMAPGVHVEALLPYTAGSLVSQIREYGNVDAVEYRDTGILLQADVDERLAAQIMDQALEDPV",
    "REL": "=",
    "soluble fraction (log2)": 0.0715
  },
  {
    "INPUT_SEQUENCE": "HMGTIEEYSKYLINQYFDSLKKPMDAMTTSEKIEIVKSLDKKGIFNLKGSVGELAKRFNTSEKTIYRYLSS",
    "REL": "=",
    "soluble fraction (log2)": -0.202
  },
  {
    "INPUT_SEQUENCE": "HMQQNYREMHKVKKGETLFGIARRYEITVDQLIKANPDMNAVGYELKKGDYIFIPYPDGQKP",
    "REL": "=",
    "soluble fraction (log2)": -0.427
  },
  {
    "INPUT_SEQUENCE": "HMAVTFPYTAYATDAVRLRERPSSSADVLAVIRKGDAVLVTGTDGNYAIVDYEGKRGYVVSSFIAT",
    "REL": "=",
    "soluble fraction (log2)": -0.522
  },
  {
    "INPUT_SEQUENCE": "HMRSKTSYAVWTPIQIDAGSQMQALQSKGFNTVLMEGGISVGIRSDKAQAQALLNRLQGAGFTGQLREVN",
    "REL": "=",
    "soluble fraction (log2)": -0.173
  },
  {
    "INPUT_SEQUENCE": "HMGDVATVKLDNNGLLNMRKSDARGADIVARIPNGTVVQVLNRETEWTQVRYDGKEGYVMSSFLQFAE",
    "REL": "=",
    "soluble fraction (log2)": -0.047
  },
  {
    "INPUT_SEQUENCE": "HMAAAQILRAAVLRVPAEETMRFVTETPELRRYLGASLGPTAAIVRPGQEQNLAAALQSHGILVEFDE",
    "REL": "=",
    "soluble fraction (log2)": -0.0423
  },
  {
    "INPUT_SEQUENCE": "HMKHFNDEELDGFAGLKSDDYNEEQVELFRNIFEELHPDEIIEWTESLRRRGIEIPSSLKDEVVMMIN",
    "REL": "=",
    "soluble fraction (log2)": 0.29
  }
]
